# System: RARa homodimer (NR concentration 270 nM)
# protocol description: PBM binding z-score (relative to random genomic background probes); higher = stronger binding; sequences stand for … in GC…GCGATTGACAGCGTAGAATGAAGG
Recorded PBM binding z-score for the following sequences
Simply state the number, no unit and no words.

Past entries and their recorded results:
Query: Please look at this sequence and report its PBM binding z-score: ATCTCTAGGTAAAAGTTCAGTCAATCCCGAGGAT
Result: 1.1

Query: Please list PBM binding z-score recorded for the sequence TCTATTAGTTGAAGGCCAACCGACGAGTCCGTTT
Result: 1.21

Query: Find the measured PBM binding z-score of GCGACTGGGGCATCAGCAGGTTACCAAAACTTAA and report it.
Result: -0.274

Query: Recall and state the measured PBM binding z-score for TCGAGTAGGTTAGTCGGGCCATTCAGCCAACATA .
Result: -1

Query: Report PBM binding z-score for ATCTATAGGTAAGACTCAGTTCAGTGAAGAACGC
Result: 0.874

More entries:
Query: Determine its reported PBM binding z-score: CCTAGCAGGCCAATCTGGGTCACCCAAGGCTTGA
Result: -0.135

Query: Give the reported PBM binding z-score for this sequence. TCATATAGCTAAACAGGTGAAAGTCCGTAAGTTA
Result: 0.0178

Query: Give a short answer stating reported PBM binding z-score for GGAACGATGGCATTCGAGTTGATAGCATGGCGAT .
Result: -0.81

Query: State its PBM binding z-score: GCTATTAGTTGAAAGGGCAACCGTATGATTCTCG
Result: 0.819

Query: Note PBM binding z-score for the sequence shown: GCTGTTAGGTCAGGTTGGTCAGCTAACGGGTACG
Result: 0.0798
